- Test System: human β3 adrenergic receptor (Homo sapiens)
- Construct: expressed in transfected cells; host or cells: CHO (Chinese hamster ovary) cells, stably transfected
- Experimental Protocol: Beta-3 agonist in vitro functional assay (cAMP production, LANCE, transfected CHO cells)
- Assay type: cell-based
- Reported Conditions: Table 1, CHO cells with cloned β3 receptor, ligands titrated 10^-10 M to 10^-5 M, read-out: Human β3 agonist functional activity
pEC50: −log10 of the molar value.
Entries and their pEC50 values follow.

Recorded pEC50, per entry:
Molecule	Observed Measurement
O=C(NCc1cnccn1)c1ccc(C[C@@H]2CC[C@H]([C@H](O)c3ccccc3)N2)cc1 [Example 10]	6.00 to 7.00
O=C(NCc1ccccc1-c1c[nH]cn1)c1ccc(C[C@@H]2CC[C@H]([C@H](O)c3ccccc3)N2)cc1 [Example 46]	6.00 to 7.00
CC(NC(=O)c1ccc(C[C@@H]2CC[C@H]([C@H](O)c3ccccc3)N2)cc1)c1cnccn1 (stereo partly shown) [Example 11]	5.52 to 6.00

Please examine the following record next.
With human β3 adrenergic receptor (Homo sapiens) as the test system, CN1CCC(NC(=O)c2ccc(C[C@@H]3CC[C@H]([C@H](O)c4cccnc4)N3)cc2)C1=O (stereo partly shown) [Example 49] showed pEC50 of 6.00 to 7.00

* * *

- Test System: human β3 adrenergic receptor (Homo sapiens, UniProt P13945)
- Construct: expressed in transfected cells; host or cells: CHO (Chinese hamster ovary) cells, stably transfected
- Sequence (P13945 whole entry): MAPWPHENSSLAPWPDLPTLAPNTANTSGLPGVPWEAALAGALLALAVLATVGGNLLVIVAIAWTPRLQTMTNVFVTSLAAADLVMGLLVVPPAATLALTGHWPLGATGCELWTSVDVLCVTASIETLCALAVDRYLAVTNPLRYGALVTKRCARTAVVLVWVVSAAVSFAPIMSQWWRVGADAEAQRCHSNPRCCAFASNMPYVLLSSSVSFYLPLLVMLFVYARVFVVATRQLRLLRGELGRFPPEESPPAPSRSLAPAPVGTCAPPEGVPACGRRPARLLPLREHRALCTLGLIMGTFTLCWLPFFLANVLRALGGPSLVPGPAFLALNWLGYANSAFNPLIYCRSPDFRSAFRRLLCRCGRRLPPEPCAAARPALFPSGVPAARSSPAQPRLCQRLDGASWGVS
- Experimental Protocol: Beta-3 agonist in vitro functional assay (cAMP production, LANCE, transfected CHO cells)
- Assay type: cell-based
- Reported Conditions: Table 1, CHO cells with cloned β3 receptor, ligands titrated 10^-10 M to 10^-5 M, read-out: Human β3 agonist functional activity
pEC50: −log10 of the molar value.
Catalogue of compounds with associated pEC50

# count of solved cases: 2
Compound	Test System	Observed Measurement
Cc1cccnc1CNC(=O)c1ccc(C[C@@H]2CC[C@H]([C@H](O)c3ccccc3)N2)cc1	human β3 adrenergic receptor (Homo sapiens, UniProt P13945)	7.00 to 8.00
O=C(NCc1ccc2ccccc2n1)c1ccc(C[C@@H]2CC[C@H]([C@H](O)c3ccccc3)N2)cc1	human β3 adrenergic receptor (Homo sapiens, UniProt P13945)	7.00 to 8.00

Recorded pEC50 (compound O=C(NC1CCc2scnc21)c1ccc(C[C@@H]2CC[C@H]([C@H](O)c3ccccc3)N2)cc1 (stereo partly shown) ): 6.00 to 7.00

Reported pEC50 of "O=C(NCc1nc2ccncc2[nH]1)c1ccc(C[C@@H]2CC[C@H]([C@H](O)c3ccccc3)N2)cc1" : 8.00 to 9.00

* * *

- Test System: human β3 adrenergic receptor (Homo sapiens)
- Construct: expressed in transfected cells; host or cells: CHO (Chinese hamster ovary) cells, stably transfected
- Experimental Protocol: Beta-3 agonist in vitro functional assay (cAMP production, LANCE, transfected CHO cells)
- Assay type: cell-based
- Reported Conditions: Table 2, CHO cells with cloned β3 receptor, ligands titrated 10^-10 M to 10^-5 M, read-out: Human β3 agonist functional activity
Measured Quantity: EC50

EC50 reported for this molecule "Cc1cc(C)nc(CNC(=O)c2ccc(C[C@@H]3CC[C@H]([C@H](O)c4ccc(F)cc4)N3)cc2)n1" : 10 to 99.9 nM

* * *

# Lookup of reported pEC50 keyed by entry
- Test System: human β3 adrenergic receptor (Homo sapiens)
- Construct: expressed in transfected cells; host or cells: CHO (Chinese hamster ovary) cells, stably transfected
- Experimental Protocol: Beta-3 agonist in vitro functional assay (cAMP production, LANCE, transfected CHO cells)
- Assay type: cell-based
- Reported Conditions: Table 1, CHO cells with cloned β3 receptor, ligands titrated 10^-10 M to 10^-5 M, read-out: Human β3 agonist functional activity
pEC50: −log10 of the molar value.

Mol	pEC50
Cc1cc(C)nc(CNC(=O)c2ccc(C[C@@H]3CC[C@H]([C@H](O)c4ccccc4)N3)cc2)n1	7.00 to 8.00
O=C(NCc1cc(Cl)ccn1)c1ccc(C[C@@H]2CC[C@H]([C@H](O)c3ccccc3)N2)cc1	7.00 to 8.00
O=C(NCc1nccc(-c2ccccc2)n1)c1ccc(C[C@@H]2CC[C@H]([C@H](O)c3ccccc3)N2)cc1	7.00 to 8.00
Cc1cccc(CNC(=O)c2ccc(C[C@@H]3CC[C@H]([C@H](O)c4ccccc4)N3)cc2)n1	6.00 to 7.00
O=C(NCc1cc2ccccc2cn1)c1ccc(C[C@@H]2CC[C@H]([C@H](O)c3ccccc3)N2)cc1	7.00 to 8.00

Record "O=C(NCc1nc2ccccc2[nH]1)c1ccc(C[C@@H]2CC[C@H]([C@H](O)c3ccccc3)N2)cc1" , field pEC50: 7.00 to 8.00

In plain terms, "O=C(NCc1nc(-c2ccccc2)n[nH]1)c1ccc(C[C@@H]2CC[C@H]([C@H](O)c3cccnc3)N2)cc1" has a documented pEC50 of 8.00 to 9.00

Reference source for all entries: patent US8604038B2
